Target: PTPN2 (Homo sapiens)
Construct: expressed in transfected cells; host or cells: 293T.109 (HiBiT-PTPN2), derived from 293T WT (ATCC)
Sequence (P17706 whole entry): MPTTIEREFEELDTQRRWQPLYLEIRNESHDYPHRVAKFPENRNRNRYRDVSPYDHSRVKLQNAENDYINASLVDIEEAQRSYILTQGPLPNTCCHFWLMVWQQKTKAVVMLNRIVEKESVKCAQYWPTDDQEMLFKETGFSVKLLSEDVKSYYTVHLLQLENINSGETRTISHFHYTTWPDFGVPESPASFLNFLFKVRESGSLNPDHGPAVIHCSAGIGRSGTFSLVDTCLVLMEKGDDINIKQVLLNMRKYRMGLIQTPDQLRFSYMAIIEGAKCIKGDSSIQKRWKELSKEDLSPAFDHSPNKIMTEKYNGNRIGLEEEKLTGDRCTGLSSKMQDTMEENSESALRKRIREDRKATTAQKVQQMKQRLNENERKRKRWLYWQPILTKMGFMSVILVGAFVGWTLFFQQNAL
Assay: HiBiT PTPN2 degradation in 293T.109 (HiBiT-PTPN2) cells, 24 hours
Format: cell-based
Settings: 293T.109 cells
recorded endpoint: DC50

Summary: Cn1nc(C2CCC(=O)NC2=O)c2ccc(Nc3ccc(CC(=O)Nc4ccc5c(F)c(N6CC(=O)NS6(=O)=O)c(O)cc5c4)cc3)cc21 (stereo not drawn) [Degrader 48] , PTPN2 (Homo sapiens), DC50 = 50 to 150 nM

Next:
Summary: Cn1c(=O)n(C2CCC(=O)NC2=O)c2ccc(-c3ccn(CC(=O)Nc4ccc5c(F)c(N6CC(=O)NS6(=O)=O)c(O)cc5c4)c(=O)c3)cc21 (stereo not drawn) [Degrader 32] , PTPN2 (Homo sapiens), DC50 = 50 to 150 nM

Summary: Cn1c(=O)n(C2CCC(=O)NC2=O)c2ccc(C3=CCC(CC(=O)Nc4ccc5c(F)c(N6CC(=O)NS6(=O)=O)c(O)cc5c4)CC3)cc21 (stereo not drawn) [Degrader 157] , PTPN2 (Homo sapiens), DC50 = 50 to 150 nM

----------
Overview of recorded DC50 for various compounds
Target: PTPN2 (Mus musculus)
Construct: HiBiT; host or cells: B16F10.4
Sequence (Q06180 1-406): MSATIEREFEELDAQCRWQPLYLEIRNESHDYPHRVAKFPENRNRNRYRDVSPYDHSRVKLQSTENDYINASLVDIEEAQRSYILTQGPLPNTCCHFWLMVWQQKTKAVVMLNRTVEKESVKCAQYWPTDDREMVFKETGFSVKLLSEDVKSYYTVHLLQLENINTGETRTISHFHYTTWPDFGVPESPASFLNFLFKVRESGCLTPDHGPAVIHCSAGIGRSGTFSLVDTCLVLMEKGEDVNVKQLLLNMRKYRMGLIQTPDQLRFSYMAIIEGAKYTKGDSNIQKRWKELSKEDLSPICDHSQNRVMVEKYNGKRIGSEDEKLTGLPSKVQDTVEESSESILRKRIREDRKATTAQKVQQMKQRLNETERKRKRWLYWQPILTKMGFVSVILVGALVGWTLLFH
Assay: HiBiT PTPN2 degradation in B16F10.4 cells, 24 hours
Assay type: cell-based

Summary: Cn1c(=O)n([C@H]2CCC(=O)NC2=O)c2ccc(N3CCC(CC(=O)Nc4ccc5c(F)c(N6CC(=O)NS6(=O)=O)c(O)cc5c4)CC3)cc21 , PTPN2 (Mus musculus), DC50 = 50 to 150 nM

Summary: Cn1c(=O)n(C2CCC(=O)NC2=O)c2ccc(Nc3cnn(CC(=O)Nc4ccc5c(F)c(N6CC(=O)NS6(=O)=O)c(O)cc5c4)c3)cc21 (stereo not drawn) , PTPN2 (Mus musculus), DC50 = 50 to 150 nM

Next up:
Summary: O=C1CCC(c2ccc(C3CCN(CC(=O)Nc4ccc5c(F)c(N6CC(=O)NS6(=O)=O)c(O)cc5c4)CC3)cc2)C(=O)N1 (stereo not drawn) , PTPN2 (Mus musculus), DC50 = ≥ 500 nM

----------
Target: PTPN2 (Mus musculus, UniProt Q06180)
Construct: HiBiT; host or cells: B16F10.4
Test: HiBiT PTPN2 degradation in B16F10.4 cells, 24 hours
Type: cell-based
recorded endpoint: DC50

// known answers, use as guide
DC50 in this record for CCn1c(=O)n(C2CCC(=O)NC2=O)c2ccc([C@H]3CCN(CC(=O)Nc4ccc5c(F)c(N6CC(=O)NS6(=O)=O)c(O)cc5c4)C[C@@H]3F)cc21 (single isomer, unassigned) [Degrader 130] : 150 to 500 nM

DC50 in this record for Cn1c(=O)n(C2CCC(=O)NC2=O)c2ccc(C3CCN(CC4CC4C(=O)N4CC[C@@H](c5ccc6cc(O)c(N7CC(=O)NS7(=O)=O)c(F)c6c5)C4)CC3)cc21 (some centres unmarked) [Degrader 18] : 150 to 500 nM

Next:
DC50 in this record for Cc1nn(C2CCC(=O)NC2=O)c2ccc(-c3ccc(CC(=O)Nc4ccc5c(F)c(N6CC(=O)NS6(=O)=O)c(O)cc5c4)cc3)cc12 (centres unmarked) [Degrader 85] : 150 to 500 nM

DC50 in this record for O=C1CCC(N2C(=O)c3cccc4c(N5CCC(CCNC(=O)Nc6ccc7c(F)c(N8CC(=O)NS8(=O)=O)c(O)cc7c6)CC5)ccc2c34)C(=O)N1 (centres unmarked) [Degrader 53] : < 50 nM

DC50 in this record for Cc1cc(CC(=O)Nc2ccc3c(F)c(N4CC(=O)NS4(=O)=O)c(O)cc3c2)ccc1-c1ccc2c(c1)n(C)c(=O)n2C1CCC(=O)NC1=O (centres unmarked) [Degrader 28] : < 50 nM

----------
Biological target: PTPN2 (Homo sapiens)
Construct: expressed in transfected cells; host or cells: 293T.109 (HiBiT-PTPN2), derived from 293T WT (ATCC)
Experiment: HiBiT PTPN2 degradation in 293T.109 (HiBiT-PTPN2) cells, 24 hours
Assay type: cell-based
Settings: 293T.109 cells
recorded endpoint: DC50

DC50 in this record for O=C1CCC(N2C(=O)c3cccc4c(N5CCC(CC(=O)Nc6ccc7c(F)c(N8CC(=O)NS8(=O)=O)c(O)cc7c6)CC5)ccc2c34)C(=O)N1 (stereo not drawn) : 50 to 150 nM

DC50 in this record for C[C@@H]1CN(CC(=O)Nc2ccc3c(F)c(N4CC(=O)NS4(=O)=O)c(O)cc3c2)CCN1c1cc2c(cc1F)n(C1CCC(=O)NC1=O)c(=O)n2C (stereo partly drawn) : 150 to 500 nM

Next:
DC50 in this record for Cn1c(=O)n(C2CCC(=O)NC2=O)c2ccc(N3CCN(CC(=O)Nc4ccc5c(F)c(N6CC(=O)NS6(=O)=O)c(O)cc5c4)C(=O)C3)cc21 (stereo not drawn) : 150 to 500 nM

DC50 in this record for Cn1c(=O)n(C2CCC(=O)NC2=O)c2ccc(C3CC4CCC(C3)N4CC(=O)Nc3ccc4c(F)c(N5CC(=O)NS5(=O)=O)c(O)cc4c3)cc21 (stereo not drawn) [Degrader 50] : 50 to 150 nM

DC50 in this record for Cn1c(=O)n(C2CCC(=O)NC2=O)c2ccc(-c3ccc(NCC4CC4C(=O)Nc4ccc5c(F)c(N6CC(=O)NS6(=O)=O)c(O)cc5c4)cc3)cc21 (stereo not drawn) : 50 to 150 nM

DC50 in this record for Cn1cc(N2CCC(=O)NC2=O)c2cc(F)c(-c3ccc(CC(=O)Nc4ccc5c(F)c(N6CC(=O)NS6(=O)=O)c(O)cc5c4)cc3)cc21 : 150 to 500 nM

DC50 in this record for O=C(CCC(=O)Nc1ccc2c(F)c(N3CC(=O)NS3(=O)=O)c(O)cc2c1)NCc1ccc2c3c(cccc13)C(=O)N2C1CCC(=O)NC1=O (stereo not drawn) : 150 to 500 nM

DC50 in this record for Cn1c(=O)n(C2CCC(=O)NC2=O)c2ccc3c(c21)CCCN3CCCCC(=O)Nc1ccc2c(F)c(N3CC(=O)NS3(=O)=O)c(O)cc2c1 (stereo not drawn) : < 50 nM

DC50 in this record for Cc1cc(CC(=O)Nc2ccc3c(F)c(N4CC(=O)NS4(=O)=O)c(O)cc3c2)ccc1N(C)c1ccc2c(c1)n(C)c(=O)n2C1CCC(=O)NC1=O (stereo not drawn) : 50 to 150 nM

DC50 in this record for Cn1c(=O)n(C2CCC(=O)NC2=O)c2ccc(C3CCN(CCC(C)(C)CCOc4ccc5cc(O)c(N6CC(=O)NS6(=O)=O)c(F)c5c4)CC3)cc21 (stereo not drawn) : < 50 nM

DC50 in this record for Cn1c(=O)n(C2CCC(=O)NC2=O)c2ccc(C3CCN(CCNC(=O)Nc4ccc5c(F)c(N6CC(=O)NS6(=O)=O)c(O)cc5c4)CC3)cc21 (stereo not drawn) : < 50 nM

DC50 in this record for Cn1c(=O)n(C2CCC(=O)NC2=O)c2ccc(-c3cccc(CCC(=O)Nc4ccc5c(F)c(N6CC(=O)NS6(=O)=O)c(O)cc5c4)c3)cc21 (stereo not drawn) : < 50 nM

----------
Biological target: PTPN2 (Mus musculus, UniProt Q06180)
Construct: HiBiT; host or cells: B16F10.4
Experiment: HiBiT PTPN2 degradation in B16F10.4 cells, 24 hours
Type: cell-based
recorded endpoint: DC50

// known answers, use as guide
Summary: C[C@@H](C(=O)Nc1ccc2c(F)c(N3CC(=O)NS3(=O)=O)c(O)cc2c1)N1CCC(c2ccc3c(c2)n(C)c(=O)n3C2CCC(=O)NC2=O)CC1 (single isomer, unassigned) , PTPN2 (Mus musculus, UniProt Q06180), DC50 = 0.05 to 0.15 µM

Summary: Cc1nn(C2CCC(=O)NC2=O)c2ccc(N3CCC(CC(=O)Nc4ccc5c(F)c(N6CC(=O)NS6(=O)=O)c(O)cc5c4)CC3)cc12 (centres unmarked) , PTPN2 (Mus musculus, UniProt Q06180), DC50 = ≥ 0.5 µM

Summary: Cn1c(=O)n(C2CCC(=O)NC2=O)c2cc(F)c(N3CCC(CC(=O)Nc4ccc5c(F)c(N6CC(=O)NS6(=O)=O)c(O)cc5c4)CC3)cc21 (centres unmarked) , PTPN2 (Mus musculus, UniProt Q06180), DC50 = 0.15 to 0.5 µM

Summary: Cn1c(=O)n(C2CCC(=O)NC2=O)c2ccc(N3CCC(CCC(=O)Nc4ccc5c(F)c(N6CC(=O)NS6(=O)=O)c(O)cc5c4)CC3)cc21 (centres unmarked) , PTPN2 (Mus musculus, UniProt Q06180), DC50 = 0.05 to 0.15 µM

Summary: C[C@H]1CN(CC(=O)Nc2ccc3c(F)c(N4CC(=O)NS4(=O)=O)c(O)cc3c2)CCN1c1ccc2c(c1)n(C)c(=O)n2C1CCC(=O)NC1=O (some centres unmarked) , PTPN2 (Mus musculus, UniProt Q06180), DC50 = 0.15 to 0.5 µM

Summary: Cn1c(=O)n(C2CCC(=O)NC2=O)c2ccc(N3CCN(CC(=O)Nc4ccc5c(F)c(N6CC(=O)NS6(=O)=O)c(O)cc5c4)CC3)c(F)c21 (centres unmarked) , PTPN2 (Mus musculus, UniProt Q06180), DC50 = 0.15 to 0.5 µM

Next:
Summary: Cn1nc(C2CCC(=O)NC2=O)c2ccc(C3CCN(CCNC(=O)c4ccc5c(F)c(N6CC(=O)NS6(=O)=O)c(O)cc5c4)CC3(F)F)cc21 (centres unmarked) , PTPN2 (Mus musculus, UniProt Q06180), DC50 = 0.15 to 0.5 µM

Summary: Cn1c(=O)n(C2CCC(=O)NC2=O)c2ccc([C@H]3CCN(CC(=O)Nc4ccc5c(F)c(N6CC(=O)NS6(=O)=O)c(O)cc5c4)C3)cc21 (single isomer, unassigned) , PTPN2 (Mus musculus, UniProt Q06180), DC50 = 0.15 to 0.5 µM

Summary: Cn1c(=O)n(C2CCC(=O)NC2=O)c2ccc([C@@H]3CCN(CC(=O)Nc4ccc5c(F)c(N6CC(=O)NS6(=O)=O)c(O)cc5c4)C3)cc21 (some centres unmarked) , PTPN2 (Mus musculus, UniProt Q06180), DC50 = 0.15 to 0.5 µM

Summary: Cn1c(=O)n(C2CCC(=O)NC2=O)c2ccc([C@H]3CN(CC(=O)Nc4ccc5c(F)c(N6CC(=O)NS6(=O)=O)c(O)cc5c4)CC[C@@H]3F)cc21 (some centres unmarked) , PTPN2 (Mus musculus, UniProt Q06180), DC50 = 0.15 to 0.5 µM
